Please consider the recorded IC50 for ROCKII (1-543) kinase (Homo sapiens, UniProt O75116) in what follows.
Value expressed in nM; do not type the unit.

Lab note: need IC50 with ROCKII (1-543) kinase (Homo sapiens, UniProt O75116) for entry COc1ccc(C(=O)NCc2cccc(C(=O)Nc3nc4c(s3)CNCC4)c2)cc1Cl , please look it up.
Sequence (O75116 1-543): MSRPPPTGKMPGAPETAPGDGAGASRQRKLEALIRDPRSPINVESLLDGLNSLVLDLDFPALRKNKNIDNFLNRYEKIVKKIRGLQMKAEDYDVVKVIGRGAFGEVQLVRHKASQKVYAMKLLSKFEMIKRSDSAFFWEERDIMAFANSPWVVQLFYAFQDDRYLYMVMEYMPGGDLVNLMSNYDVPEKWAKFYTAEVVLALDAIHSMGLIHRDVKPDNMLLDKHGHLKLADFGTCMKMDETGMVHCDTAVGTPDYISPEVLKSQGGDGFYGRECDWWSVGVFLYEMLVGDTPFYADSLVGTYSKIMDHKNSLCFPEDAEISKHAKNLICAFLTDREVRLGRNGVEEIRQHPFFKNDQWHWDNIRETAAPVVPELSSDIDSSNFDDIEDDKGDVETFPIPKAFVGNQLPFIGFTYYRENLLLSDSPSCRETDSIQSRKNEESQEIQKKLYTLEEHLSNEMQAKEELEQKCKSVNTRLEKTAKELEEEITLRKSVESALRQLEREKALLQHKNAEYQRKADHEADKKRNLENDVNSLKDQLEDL
4

Item: COc1ccc(C(=O)NCc2cccc(C(=O)Nc3ccc4c(c3)CNC4)c2)cc1OC Test system: ROCKII (1-543) kinase (Homo sapiens, UniProt O75116) Read-out: IC50 Value: ?
6

Query the reported IC50 for ROCKII (1-543) kinase (Homo sapiens, UniProt O75116); item: CCCN[C@H]1CCc2nc(N(CCOC)C(=O)c3cccc(CNC(=O)c4ccc(OC)c(Cl)c4)c3)sc2C1
72

---
Query for ROCKII (1-543) kinase (Homo sapiens, UniProt O75116): what IC50 does the record show for COc1ccc(C(=O)NCc2cccc(NC(=O)c3nc4c(s3)CNCC4)c2)cc1OC ?
22

Request body: readout IC50, system ROCKII (1-543) kinase (Homo sapiens, UniProt O75116), query COc1ccc(C(=O)NCc2cccc(C(=O)Nc3nc4c(s3)C[C@H](N(C)C)CC4)c2)cc1OC . Return the value.
1

Which IC50 is reported with ROCKII (1-543) kinase (Homo sapiens, UniProt O75116) for this entry: COc1ccc(C(=O)NCc2cccc(C(=O)Nc3ncc(CCN4CCN(C)CC4)s3)c2)cc1OC ?
20

Query IC50 on ROCKII (1-543) kinase (Homo sapiens, UniProt O75116) for COc1ccc(C(=O)NCc2cccc(C(=O)Nc3ccc4c(c3)CCNCC4)c2)cc1OC
15

Value wanted: IC50 (ROCKII (1-543) kinase (Homo sapiens, UniProt O75116)) of entry COc1ccc(C(=O)NCc2cccc(C(=O)Nc3nc4c(s3)C[C@@H](N3CCS(=O)(=O)CC3)CC4)c2)cc1OC
13

* * *

Known IC50 of a selection of molecules
- SUBJECT_OF_TEST: ROCKII (1-543) kinase (Homo sapiens, UniProt O75116)
Note: unit nM is implicit; provide only the numeric part.

Notebook entry, ROCKII (1-543) kinase (Homo sapiens, UniProt O75116) assay: IC50 of COc1ccc(C(=O)NCc2cccc(C(=O)Nc3ccc(OCCN4CCOCC4)cc3)c2)cc1OC = ?
58

Missing value: IC50, ROCKII (1-543) kinase (Homo sapiens, UniProt O75116), entry CN1CCc2nc(NC(=O)c3cccc(CNC(=O)Nc4ccc(C#N)cc4)c3)sc2C1 . Fill in?
10

Query the reported IC50 for ROCKII (1-543) kinase (Homo sapiens, UniProt O75116); item: COc1ccc(C(=O)NCc2cccc(C(=O)Nc3ccc(CCN4CCCC4)cc3)c2)cc1C
120

Moving on to the next molecule.
Query IC50 on ROCKII (1-543) kinase (Homo sapiens, UniProt O75116) for CCCN[C@H]1CCc2nc(NC(=O)c3cccc(CNC(=O)c4ccc(OC)c(Cl)c4)c3)sc2C1
2

meta.source: patent US8093266B2
